Target: IKZF1 (Homo sapiens, UniProt Q13422+Q96SW2)
Construct: expressed in transfected cells
Sequence (Q13422 whole entry): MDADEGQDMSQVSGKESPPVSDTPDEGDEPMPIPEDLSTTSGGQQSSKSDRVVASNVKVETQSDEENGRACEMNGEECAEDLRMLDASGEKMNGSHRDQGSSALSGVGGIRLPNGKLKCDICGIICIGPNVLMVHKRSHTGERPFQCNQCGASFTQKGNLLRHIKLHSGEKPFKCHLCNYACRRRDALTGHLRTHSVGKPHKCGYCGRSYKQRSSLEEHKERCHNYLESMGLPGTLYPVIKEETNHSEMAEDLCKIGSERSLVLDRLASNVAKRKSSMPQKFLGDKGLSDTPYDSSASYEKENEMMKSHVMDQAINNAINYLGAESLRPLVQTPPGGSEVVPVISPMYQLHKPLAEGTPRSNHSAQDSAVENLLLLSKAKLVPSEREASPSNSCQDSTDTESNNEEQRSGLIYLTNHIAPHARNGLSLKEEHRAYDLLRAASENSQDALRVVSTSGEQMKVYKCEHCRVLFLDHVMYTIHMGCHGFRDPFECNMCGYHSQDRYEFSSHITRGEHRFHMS
Sequence (Q96SW2 whole entry): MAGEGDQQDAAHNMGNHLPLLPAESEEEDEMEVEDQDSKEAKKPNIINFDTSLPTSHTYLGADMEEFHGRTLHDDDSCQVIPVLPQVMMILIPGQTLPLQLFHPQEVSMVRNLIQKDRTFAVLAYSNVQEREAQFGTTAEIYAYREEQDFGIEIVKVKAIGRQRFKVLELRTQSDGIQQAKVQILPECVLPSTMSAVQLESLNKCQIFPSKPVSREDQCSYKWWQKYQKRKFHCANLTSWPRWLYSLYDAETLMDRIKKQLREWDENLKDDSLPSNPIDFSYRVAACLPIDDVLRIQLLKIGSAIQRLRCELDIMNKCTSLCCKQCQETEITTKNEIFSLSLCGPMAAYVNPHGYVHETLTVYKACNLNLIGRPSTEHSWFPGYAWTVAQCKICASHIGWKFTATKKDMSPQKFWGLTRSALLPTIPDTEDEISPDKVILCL
Sequence (Q16531 whole entry partner): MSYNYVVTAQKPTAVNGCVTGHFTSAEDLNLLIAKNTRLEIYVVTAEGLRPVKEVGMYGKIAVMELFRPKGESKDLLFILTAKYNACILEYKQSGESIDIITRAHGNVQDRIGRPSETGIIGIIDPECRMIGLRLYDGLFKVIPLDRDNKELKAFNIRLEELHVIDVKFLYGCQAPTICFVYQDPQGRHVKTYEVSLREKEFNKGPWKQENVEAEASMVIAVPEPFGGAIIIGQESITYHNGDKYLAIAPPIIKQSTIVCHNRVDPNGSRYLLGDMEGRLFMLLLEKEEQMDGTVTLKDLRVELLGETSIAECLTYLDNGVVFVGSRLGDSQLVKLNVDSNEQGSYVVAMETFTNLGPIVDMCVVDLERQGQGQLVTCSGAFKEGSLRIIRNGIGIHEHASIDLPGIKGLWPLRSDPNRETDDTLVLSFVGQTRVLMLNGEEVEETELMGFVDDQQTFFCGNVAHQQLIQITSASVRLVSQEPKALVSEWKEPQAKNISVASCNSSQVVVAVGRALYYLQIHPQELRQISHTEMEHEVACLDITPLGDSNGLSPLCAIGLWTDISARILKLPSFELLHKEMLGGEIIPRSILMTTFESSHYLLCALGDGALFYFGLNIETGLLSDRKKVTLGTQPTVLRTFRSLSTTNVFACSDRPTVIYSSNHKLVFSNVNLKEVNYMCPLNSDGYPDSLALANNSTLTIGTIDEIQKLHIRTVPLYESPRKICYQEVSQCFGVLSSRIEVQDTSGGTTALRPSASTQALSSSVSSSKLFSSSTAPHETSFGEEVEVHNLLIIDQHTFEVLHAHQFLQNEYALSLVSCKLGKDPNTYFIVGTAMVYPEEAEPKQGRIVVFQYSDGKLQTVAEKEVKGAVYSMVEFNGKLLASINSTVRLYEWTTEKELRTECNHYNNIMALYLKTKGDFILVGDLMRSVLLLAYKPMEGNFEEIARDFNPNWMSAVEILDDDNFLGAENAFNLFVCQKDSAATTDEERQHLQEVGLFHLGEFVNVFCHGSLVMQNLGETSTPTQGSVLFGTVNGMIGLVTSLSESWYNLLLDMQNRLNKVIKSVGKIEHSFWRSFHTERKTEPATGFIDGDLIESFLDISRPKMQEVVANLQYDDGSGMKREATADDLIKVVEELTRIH
Assay: HEK293 HiBiT in vitro degradation of IKZF1
Type: cell-based
Conditions: HEK293 HiBiT, 18-24 hr incubation, normalized to DMSO control; read-out: IKZF1 EC50
quantity: DC50

compound: O=C1CC[C@H](N2Cc3cc(C[C@H]4CCCC[C@@H]4NC4CCC(F)(F)CC4)cc(F)c3C2=O)C(=O)N1
measured: > 1000 nM

compound: O=C1CCC(N2Cc3cc(C[C@H]4CCCC[C@@H]4NCc4cccnc4)ccc3C2=O)C(=O)N1 (stereo partly shown)
measured: 216 nM

compound: CC(C)OC1CCC(N[C@H]2CCCO[C@@H]2Cc2ccc3c(c2F)CN(C2CCC(=O)NC2=O)C3=O)CC1 (single isomer, unassigned) [Example 284]
measured: > 1000 nM

compound: CC(CC1CC1)N[C@H]1CCCC[C@@H]1Cc1ccc2c(c1)CN(C1CCC(=O)NC1=O)C2=O (single isomer, unassigned) [Example 231]
measured: > 1000 nM

compound: Cn1ncc2c1CCC(N[C@H]1CCCC[C@@H]1Cc1ccc3c(c1)CN(C1CCC(=O)NC1=O)C3=O)C2 (stereo partly shown)
measured: 73 nM

compound: O=C1CCC(N2Cc3cc(C[C@H]4CCC[C@H](O)[C@@H]4NC4CCCCC4)ccc3C2=O)C(=O)N1 (relative stereo)
measured: > 500 nM

compound: O=C1CCC(N2Cc3cc(C[C@H]4OCCC[C@@H]4NC4CCCCC4)ccc3C2=O)C(=O)N1 (stereo partly shown) [Example 179]
measured: > 10000 nM
